Tested on: Rattus norvegicus
Assay: Mean excretion of potassium in conscious rats at a dose of 0.3 mg/kg given orally
Assay type: ADME, organism-based
Set-up: dose 0.3 mg/kg, route oral
Conditions: in vivo, po
Catalogue of compounds with associated Mean excretion of K+
Write the value in m equiv as a bare number.

Consider the worked cases shown below.
1) CN(C)CC(c1ccccc1Cl)c1nnc2n1-c1ccc(Cl)cc1C(c1ccccc1)=NC2 (stereo not given); 0.25
2) I.NCC(c1ccccc1)c1nnc2n1-c1ccc(Cl)cc1C(c1ccccc1)=NC2 (stereo not given); 0.28

Query: Mean excretion of K+; subject: CN(C)CC(c1ccccc1)c1nnc2n1-c1ccc(Br)cc1C(c1ccccc1)=NC2 (stereo not given)
Reply: 0.24

Query: Entry under review: CSc1ccc2c(c1)C(c1ccccc1)=NCc1nnc(C(CN(C)C)c3ccccc3)n1-2 (stereo not given) . Reported Mean excretion of K+?
Reply: 0.31

Query: Please give the measured Mean excretion of K+ for this compound: CN(C)CC(c1ccccc1)c1nnc2n1-c1ccc(I)cc1C(c1ccccc1)=NC2 (stereo not given)
Reply: 0.18

----------
System: Rattus norvegicus
Assay: Mean excretion of chloride in conscious rats at a dose of 10 mg/kg given orally
Type: ADME, organism-based
Design: dose 10 mg/kg, route oral
Settings: in vivo, po
Threshold check on Mean excretion of Cl-: at or above 0.9 m equiv gives Fulfilled, strictly below gives Not fulfilled.

Query: Could you verify whether the entry CN(C)CC(c1ccccc1)c1nnc2n1-c1ccc(I)cc1C(c1ccccc1)=NC2 (stereo not given) shows Mean excretion of Cl- of no less than 0.9 m equiv?
Reply: Fulfilled

Query: Say whether CN(C)CC(c1ccccc1)c1nnc2n1-c1ccc(Br)cc1C(c1ccccc1)=NC2 (stereo not given) shows Mean excretion of Cl- of 0.9 m equiv or more.
Reply: Not fulfilled

Query: Quick check: does COc1cccc(C(CN(C)C)c2nnc3n2-c2ccc(Cl)cc2C(c2ccccc2)=NC3)c1 (stereo not given) have Mean excretion of Cl- greater than or equal to 0.9 m equiv?
Reply: Fulfilled

Query: Check this compound for Mean excretion of Cl- at or above 0.9 m equiv: CSc1ccc2c(c1)C(c1ccccc1)=NCc1nnc(C(CN(C)C)c3ccccc3)n1-2 (stereo not given)
Reply: Fulfilled

Query: Answer whether Mean excretion of Cl- of `Nc1nc(N)c2nc(-c3ccccc3)c(N)nc2n1` is greater than or equal to 0.9 m equiv.
Reply: Not fulfilled

Query: Hello, I need to know if I.NCC(c1ccccc1)c1nnc2n1-c1ccc(Cl)cc1C(c1ccccc1)=NC2 (stereo not given) has measured Mean excretion of Cl- not below 0.9 m equiv. Thanks!
Reply: Fulfilled

Query: Decide: Mean excretion of Cl- of COc1ccc(C(CN(C)C)c2nnc3n2-c2ccc(Cl)cc2C(c2ccccc2)=NC3)cc1 (stereo not given) >= 0.9 m equiv?
Reply: Fulfilled

Query: Is Mean excretion of Cl- at least 0.9 m equiv? Consider NS(=O)(=O)c1cc2c(cc1Cl)NCNS2(=O)=O [HYDROCHLOROTHIAZIDE]
Reply: Fulfilled

Query: Answer whether Mean excretion of Cl- of COc1ccccc1C(CN(C)C)c1nnc2n1-c1ccc(Cl)cc1C(c1ccccc1)=NC2 (stereo not given) is greater than or equal to 0.9 m equiv.
Reply: Not fulfilled

Query: Test whether the compound CN(C)CC(c1ccccc1)c1nnc2n1-c1ccc(Cl)cc1C(c1ccccc1)=NC2 (stereo not given) records Mean excretion of Cl- of 0.9 m equiv or higher.
Reply: Fulfilled
